Task for the reader: assign each of the following variants its reported self-cleavage.
B1: LINE1-full (parent)
chain: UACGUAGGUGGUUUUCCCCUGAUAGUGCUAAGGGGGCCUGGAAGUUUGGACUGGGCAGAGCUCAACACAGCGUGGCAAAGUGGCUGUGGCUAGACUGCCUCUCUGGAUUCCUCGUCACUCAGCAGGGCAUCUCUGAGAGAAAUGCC

Variants of: B1
method: self-cleavage, relative activity (ratio to wild type); higher = more cleavage; in vitro, sequencing; the parent is a self-cleaving ribozyme
Reply: number alone, nothing else.

Fill in: self-cleavage of U20G U102C is ___
1.73

What does the record list as self-cleavage for A57C U119A ?
0.06

Given the entry C76G A141G , report its measured self-cleavage.
2.47

Any idea what its self-cleavage is? The variant is U12C U26G
0.58

Recorded self-cleavage for U5G A64C , please?
0.19

Entry G44A A140G has what self-cleavage?
1.34

# get_value(readout='self-cleavage', item= A107C A136U )
1.2

Which self-cleavage reading was recorded for the variant G7A ?
1.08

So what does the record say about self-cleavage for U23C U52A ?
1.39

If you can, please state the reported self-cleavage value of G21A A124G .
0.9

Any idea what self-cleavage was measured for A69U G93A ?
0.03

Which self-cleavage is listed for U14A G70A ?
0.19

# self-cleavage lookup, item U96A G122C
0.07

Data request, read-out self-cleavage, for A57G U62A
0.05

Request the reported self-cleavage associated with U26A G144A
1.03

Returns the measured self-cleavage for the input variant. Input: U9C A43G
1.12
